- Study system: Neuraminidase (Influenza A virus, UniProt B4URF0)
- Sequence (B4URF0 whole entry): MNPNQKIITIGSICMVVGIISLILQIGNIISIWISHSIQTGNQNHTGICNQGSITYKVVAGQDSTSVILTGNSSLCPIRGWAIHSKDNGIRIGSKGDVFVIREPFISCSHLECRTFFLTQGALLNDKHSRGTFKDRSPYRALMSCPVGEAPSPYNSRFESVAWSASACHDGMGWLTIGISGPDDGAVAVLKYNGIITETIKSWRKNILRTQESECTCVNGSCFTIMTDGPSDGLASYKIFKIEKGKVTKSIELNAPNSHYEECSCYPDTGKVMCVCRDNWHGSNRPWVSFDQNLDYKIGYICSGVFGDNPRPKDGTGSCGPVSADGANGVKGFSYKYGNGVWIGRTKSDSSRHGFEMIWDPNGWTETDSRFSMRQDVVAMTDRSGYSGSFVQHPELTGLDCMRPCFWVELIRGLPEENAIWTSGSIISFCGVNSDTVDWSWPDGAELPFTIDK
- Design: species or system duck/Guangdong/674/2014(H5N6)
Quantity: IC50 (µM)
Give bare numbers, in µM.

// solved cases for IC50 follow
Mol: CCC(CC)O[C@@H]1C=C(C(=O)NCc2cccc(Cl)c2)C[C@H](N)[C@H]1NC(C)=O
Study system: Neuraminidase (Influenza A virus, UniProt B4URF0)
Result value: 7.86
//
Mol: CCC(CC)O[C@@H]1C=C(C(=O)Nc2ccc(F)cc2)C[C@H](N)[C@H]1NC(C)=O
Study system: Neuraminidase (Influenza A virus, UniProt B4URF0)
Result value: 16.3
//
Mol: CCC(CC)O[C@@H]1C=C(C(=O)NCc2ccccc2)C[C@H](N)[C@H]1NC(C)=O
Study system: Neuraminidase (Influenza A virus, UniProt B4URF0)
Result value: 19.9
//
Mol: CCC(CC)O[C@@H]1C=C(C(=O)NCc2ccc(-c3cccs3)cc2)C[C@H](N)[C@H]1NC(C)=O
Study system: Neuraminidase (Influenza A virus, UniProt B4URF0)
Result value: 10.9
//
Mol: CCC(CC)O[C@@H]1C=C(C(=O)NCCc2cccc(F)c2)C[C@H](N)[C@H]1NC(C)=O
Study system: Neuraminidase (Influenza A virus, UniProt B4URF0)
Result value: 32.5

Consider the following items and state reported IC50 for each.
1. CCC(CC)O[C@@H]1C=C(C(=O)NCc2ccc(Br)cc2)C[C@H](N)[C@H]1NC(C)=O
2. CCC(CC)O[C@@H]1C=C(C(=O)NCc2ccc(C)cc2)C[C@H](N)[C@H]1NC(C)=O

OUTPUT:
1. 6.01
2. 11
